measured_on: mushroom tyrosinase
experiment_summary: Tyrosinase enzyme inhibition assay
Format: biochemical
assay_conditions: pure compounds; mean ± S.D., triplicate independent experiments
measured_quantity: pIC50
Convention used: pIC50 is expressed as -log10 of the molar concentration.

Example compounds with recorded pIC50:
O=C(OC[C@H]1OC[C@H](O)[C@@H](O)[C@@H]1O)c1cc(O)c(O)c(O)c1; 2.98
O=C(OC[C@H]1OC[C@H](OC(=O)c2cc(O)c(O)c(O)c2)[C@@H](O)[C@@H]1O)c1cc(O)c(O)c(O)c1; 3.74
OC[C@H]1O[C@@H](Oc2ccc(O)cc2)[C@H](O)[C@@H](O)[C@@H]1O [Arbutin, reference compound]; 4.20

API: the following record is the query input.
Q) Retrieve pIC50 measured for O=C(O[C@H]1CO[C@H](CO)[C@@H](O)[C@@H]1O)c1cc(O)c(O)c(O)c1 and print it.
A) 3.07

All figures here come from patent US10155738B2.
